Target: YAP1-TEAD4 (Homo sapiens) (UniProt P46937+Q15561)
Assay: Inhibition of GST-tagged TEAD4 (217 to 434 residues) (unknown origin) expressed in Escherichia coli BL21 (DE3) cells/FAM-labelled YAP1 (60 to 99 residues)(unknown origin) protein-protein interaction assessed maximum inhibition preincubated for 48 hrs at 4 degree C with TEAD4 followed by fluorescent labelled YAP1 addition by fluorescence polarization assay
With a cut-off of 40%, any Imax strictly below it is called y; any Imax meeting it or above is called n.

Examples with answers:
| compound | classAssignment |
| --- | --- |
| COc1cccc(C2CC(Cc3cccs3)=NN2C(=O)CCl)c1OC (stereo unspecified) | n |
| O=C(NCCc1ccccc1)C(c1cccs1)N(C(=O)CCl)c1cccc(Cl)c1 (stereo unspecified) | y |
| CCS(=O)(=O)Oc1ccc(CN(Cc2ccc(F)cc2)C(=O)CCl)cc1 | y |
| Cc1ccc(C2=NN(C(=O)CCl)C(c3ccco3)C2)cc1 (stereo unspecified) | y |
| O=C(Nc1ccccc1)C1CCN(C(=O)CCl)CC1 | y |

Prompt: Imax strictly < 40% for this compound? "CCOc1ccc(S(=O)(=O)N2CCN(C(=O)CCl)CC2)cc1"
Response: n
